Origin of values: patent US20230279004A1

Assay: Solubility measurement in various solvents (HPLC)
Format: physicochemical
Details: 1,4-dioxane, 50 °C, organic solvent or mixture, thermodynamic from solid, 1,4-Dioxane, 24 h
ASSAY READOUT: solubility at 24 h

Query string: Using the record for CCOc1c(-c2cn[nH]c2)ccn2nc(N[C@H]3CCN(S(C)(=O)=O)C[C@H]3C)nc12 [compound of Formula (I) Form I] , report its solubility at 24 h.
Result string: > 50 mg/mL

----------
Assay: Solubility measurement in various solvents (HPLC)
Assay type: physicochemical
Settings: ethyl formate, 50 °C, organic solvent or mixture, thermodynamic from solid, 24 h
Method: 5 mL of solvent (see Table 8) was added to the individual vials. The compound of Formula (I) Form I was added to the vials to get a cloudy solution at 25° C. Another approximately 20 mg of the compound of Formula (I) Form I was added to the cloudy solution. The mixture was agitated at 25±1° C. for 48 h, which was controlled by IKA® ETS-D5 temperature controller and IKA® RCT basic safety control. The supernatant was filtered using a syringe filter (0.22 μm). […]
ASSAY READOUT: solubility at 24 h

Query string: Using the record for CCOc1c(-c2cn[nH]c2)ccn2nc(N[C@H]3CCN(S(C)(=O)=O)C[C@H]3C)nc12 [compound of Formula (I) Form I] , report its solubility at 24 h.
Result string: 15 to 50 mg/mL

----------
Test: Solubility measurement in various solvents (HPLC)
Type: physicochemical
Settings: iso-butyl acetate, 25 °C, organic solvent or mixture, thermodynamic from solid, 48 h
ASSAY READOUT: solubility at 48 h

Query string: Using the record for CCOc1c(-c2cn[nH]c2)ccn2nc(N[C@H]3CCN(S(C)(=O)=O)C[C@H]3C)nc12 [compound of Formula (I) Form I] , report its solubility at 48 h.
Result string: 1000 to 15000 µg/mL

----------
Assay: Solubility measurement in various solvents (HPLC)
Type: physicochemical
Conditions: iso-butyl acetate, 50 °C, organic solvent or mixture, thermodynamic from solid, 24 h
Procedure: 5 mL of solvent (see Table 8) was added to the individual vials. The compound of Formula (I) Form I was added to the vials to get a cloudy solution at 25° C. Another approximately 20 mg of the compound of Formula (I) Form I was added to the cloudy solution. The mixture was agitated at 25±1° C. for 48 h, which was controlled by IKA® ETS-D5 temperature controller and IKA® RCT basic safety control. The supernatant was filtered using a syringe filter (0.22 μm). […]
ASSAY READOUT: solubility at 24 h

Query string: Using the record for CCOc1c(-c2cn[nH]c2)ccn2nc(N[C@H]3CCN(S(C)(=O)=O)C[C@H]3C)nc12 [compound of Formula (I) Form I] , report its solubility at 24 h.
Result string: 1000 to 15000 µg/mL

----------
Assay: Solubility measurement in various solvents (HPLC)
Assay type: physicochemical
Conditions: methyl ethyl ketone, 25 °C, organic solvent or mixture, thermodynamic from solid, 48 h
ASSAY READOUT: solubility at 48 h

Query string: Using the record for CCOc1c(-c2cn[nH]c2)ccn2nc(N[C@H]3CCN(S(C)(=O)=O)C[C@H]3C)nc12 [compound of Formula (I) Form I] , report its solubility at 48 h.
Result string: 15 to 50 mg/mL

----------
Experiment: Solubility measurement in various solvents (HPLC)
Assay type: physicochemical
Settings: dichloromethane, 25 °C, organic solvent or mixture, thermodynamic from solid, 48 h
ASSAY READOUT: solubility at 48 h

Query string: Using the record for CCOc1c(-c2cn[nH]c2)ccn2nc(N[C@H]3CCN(S(C)(=O)=O)C[C@H]3C)nc12 [compound of Formula (I) Form I] , report its solubility at 48 h.
Result string: 15 to 50 mg/mL

----------
Test: Solubility measurement in various solvents (HPLC)
Type: physicochemical
Settings: 2-methyl THF, 50 °C, organic solvent or mixture, thermodynamic from solid, 24 h
ASSAY READOUT: solubility at 24 h

Query string: Using the record for CCOc1c(-c2cn[nH]c2)ccn2nc(N[C@H]3CCN(S(C)(=O)=O)C[C@H]3C)nc12 [compound of Formula (I) Form I] , report its solubility at 24 h.
Result string: 15 to 50 mg/mL

----------
Assay: Solubility measurement in various solvents (HPLC)
Type: physicochemical
Conditions: EtOH, 50 °C, organic solvent or mixture, thermodynamic from solid, 24 h
ASSAY READOUT: solubility at 24 h

Query string: Using the record for CCOc1c(-c2cn[nH]c2)ccn2nc(N[C@H]3CCN(S(C)(=O)=O)C[C@H]3C)nc12 [compound of Formula (I) Form I] , report its solubility at 24 h.
Result string: 15 to 50 mg/mL

----------
Assay: Solubility measurement in various solvents (HPLC)
Format: physicochemical
Conditions: 3% water in EtOH, 50 °C, organic solvent or mixture, thermodynamic from solid, 24 h
ASSAY READOUT: solubility at 24 h

Query string: Using the record for CCOc1c(-c2cn[nH]c2)ccn2nc(N[C@H]3CCN(S(C)(=O)=O)C[C@H]3C)nc12 [compound of Formula (I) Form I] , report its solubility at 24 h.
Result string: 15 to 50 mg/mL

----------
Experiment: Solubility measurement in various solvents (HPLC)
Format: physicochemical
Settings: DMSO, 50 °C, organic solvent or mixture, thermodynamic from solid, 24 h
ASSAY READOUT: solubility at 24 h

Query string: Using the record for CCOc1c(-c2cn[nH]c2)ccn2nc(N[C@H]3CCN(S(C)(=O)=O)C[C@H]3C)nc12 [compound of Formula (I) Form I] , report its solubility at 24 h.
Result string: > 50 mg/mL

----------
Assay: Solubility measurement in various solvents (HPLC)
Format: physicochemical
Conditions: tetrahydrofuran (THF), 50 °C, organic solvent or mixture, thermodynamic from solid, 24 h
ASSAY READOUT: solubility at 24 h

Query string: Using the record for CCOc1c(-c2cn[nH]c2)ccn2nc(N[C@H]3CCN(S(C)(=O)=O)C[C@H]3C)nc12 [compound of Formula (I) Form I] , report its solubility at 24 h.
Result string: > 50 mg/mL

----------
Test: Solubility measurement in various solvents (HPLC)
Assay type: physicochemical
Conditions: chloroform, 25 °C, organic solvent or mixture, thermodynamic from solid, 48 h
Method: 5 mL of solvent (see Table 8) was added to the individual vials. The compound of Formula (I) Form I was added to the vials to get a cloudy solution at 25° C. Another approximately 20 mg of the compound of Formula (I) Form I was added to the cloudy solution. The mixture was agitated at 25±1° C. for 48 h, which was controlled by IKA® ETS-D5 temperature controller and IKA® RCT basic safety control. The supernatant was filtered using a syringe filter (0.22 μm). […]
ASSAY READOUT: solubility at 48 h

Query string: Using the record for CCOc1c(-c2cn[nH]c2)ccn2nc(N[C@H]3CCN(S(C)(=O)=O)C[C@H]3C)nc12 [compound of Formula (I) Form I] , report its solubility at 48 h.
Result string: > 50 mg/mL

----------
Assay: Solubility measurement in various solvents (HPLC)
Format: physicochemical
Conditions: iso-propyl acetate, 25 °C, organic solvent or mixture, thermodynamic from solid, 48 h
ASSAY READOUT: solubility at 48 h

Query string: Using the record for CCOc1c(-c2cn[nH]c2)ccn2nc(N[C@H]3CCN(S(C)(=O)=O)C[C@H]3C)nc12 [compound of Formula (I) Form I] , report its solubility at 48 h.
Result string: 1000 to 15000 µg/mL

----------
Molecular target: CDK2/Cyclin E1 (Homo sapiens, UniProt P24941)
Construct: full-length human CDK2; GST (N)
Assay: CDK2/Cyclin E1 HTRF enzyme activity assay
Settings: 1 mM ATP
ASSAY READOUT: IC50

Query string: // lookup IC50 | system=CDK2/Cyclin E1 (Homo sapiens, UniProt P24941) | key= CCOc1c(-c2cn[nH]c2)ccn2nc(N[C@H]3CCN(S(C)(=O)=O)C[C@H]3C)nc12
Result string: ≤ 20 nM

----------
Test: Solubility measurement in various solvents (HPLC)
Format: physicochemical
Settings: 1,4-dioxane, 25 °C, organic solvent or mixture, thermodynamic from solid, 1,4-Dioxane, 48 h
ASSAY READOUT: solubility at 48 h

Query string: Using the record for CCOc1c(-c2cn[nH]c2)ccn2nc(N[C@H]3CCN(S(C)(=O)=O)C[C@H]3C)nc12 [compound of Formula (I) Form I] , report its solubility at 48 h.
Result string: > 50 mg/mL

----------
Assay: Solubility measurement in various solvents (HPLC)
Type: physicochemical
Details: methyl ethyl ketone, 50 °C, organic solvent or mixture, thermodynamic from solid, 24 h
Experimental: 5 mL of solvent (see Table 8) was added to the individual vials. The compound of Formula (I) Form I was added to the vials to get a cloudy solution at 25° C. Another approximately 20 mg of the compound of Formula (I) Form I was added to the cloudy solution. The mixture was agitated at 25±1° C. for 48 h, which was controlled by IKA® ETS-D5 temperature controller and IKA® RCT basic safety control. The supernatant was filtered using a syringe filter (0.22 μm). […]
ASSAY READOUT: solubility at 24 h

Query string: Using the record for CCOc1c(-c2cn[nH]c2)ccn2nc(N[C@H]3CCN(S(C)(=O)=O)C[C@H]3C)nc12 [compound of Formula (I) Form I] , report its solubility at 24 h.
Result string: 15 to 50 mg/mL
